Reference source for all entries: paper PMC4351158

Biological target: T1, DegS D221A/H198P (E. coli, UniProt P0AEE3 27-355, D221A | H198P)
T1 sequence (looked up): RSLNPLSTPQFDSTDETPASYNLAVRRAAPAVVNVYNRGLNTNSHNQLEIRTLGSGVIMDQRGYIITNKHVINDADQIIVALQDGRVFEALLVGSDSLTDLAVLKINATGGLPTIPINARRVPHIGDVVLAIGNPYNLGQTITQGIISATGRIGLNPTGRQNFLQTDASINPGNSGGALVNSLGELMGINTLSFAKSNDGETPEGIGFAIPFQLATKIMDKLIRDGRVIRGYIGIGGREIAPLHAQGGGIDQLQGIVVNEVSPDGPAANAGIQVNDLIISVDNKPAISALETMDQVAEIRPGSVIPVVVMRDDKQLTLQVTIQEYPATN
Experiment: fluorescence polarisation
Where no end group is shown, it is not given here. fluorescein = fluorescein, a fluorescent label on the peptide N-terminus
measuredProperty: pKd
Please keep in mind that pKd is minus log10 of the molar concentration; only the number is needed.

get_value(item= fluorescein-DNRDGNVYYF [fluorescent OMP peptide fluorescein-DNRDGNVYYF] , readout=pKd) returns 5.77
